Quick reference for CC50 among some compounds
test system: TZM; assay: Cytotoxicity in uninfected human TZM-bl assessed as reduction in cell viability incubated for 1 day by Cyto-tox-Glo cytotoxicity assay; format: cell-based; conditions: 24 h
measured_parameter: CC50

{"compound_structure": "COc1ccc(N(C)C(=O)[C@H](Cc2ccccc2)NC(=O)CNS(=O)(=O)c2ccc([N+](=O)[O-])cc2)cc1", "reported_measurement": "> 38 µM"}
{"compound_structure": "COc1ccc(N(C)C(=O)[C@H](Cc2ccccc2)NC(=O)CN2CCN(S(=O)(=O)c3ccc(Br)cc3)CC2=O)cc1", "reported_measurement": "> 31.1 µM"}
{"compound_structure": "COc1ccc(N(C)C(=O)[C@H](Cc2ccccc2)NC(=O)CNS(=O)(=O)c2ccccc2N)cc1", "reported_measurement": "> 40.3 µM"}
{"compound_structure": "COc1ccc(N(C)C(=O)[C@H](Cc2ccccc2)NC(=O)CNS(=O)(=O)c2ccc(C)cc2)cc1", "reported_measurement": "> 40.4 µM"}
{"compound_structure": "COc1ccc(N(C)C(=O)[C@H](Cc2ccccc2)NC(=O)CNS(=O)(=O)c2cccc(F)c2)cc1", "reported_measurement": "> 40 µM"}
{"compound_structure": "COc1ccc(N(C)C(=O)[C@H](Cc2ccccc2)NC(=O)CN2CCN(S(=O)(=O)c3cccc(N)c3)CC2=O)cc1", "reported_measurement": "> 34.5 µM"}
{"compound_structure": "COc1ccc(N(C)C(=O)[C@H](Cc2ccccc2)NC(=O)CNS(=O)(=O)c2c(C)cc(C)cc2C)cc1", "reported_measurement": "> 38.2 µM"}
{"compound_structure": "COc1ccc(N(C)C(=O)[C@H](Cc2ccccc2)NC(=O)CN2C(=O)N(CC(=O)N[C@@H](Cc3ccccc3)C(=O)N(C)c3ccc(OC)cc3)S(=O)(=O)c3cc(Cl)ccc32)cc1", "reported_measurement": "> 22.7 µM"}
{"compound_structure": "COc1ccc(N(C)C(=O)[C@H](Cc2ccccc2)NC(=O)CNS(=O)(=O)c2ccc(Br)cc2)cc1", "reported_measurement": "> 35.7 µM"}
{"compound_structure": "COc1ccc(N(C)C(=O)[C@H](Cc2ccccc2)NC(=O)CNS(=O)(=O)c2ccc(N)cc2)cc1", "reported_measurement": "> 40.3 µM"}
{"compound_structure": "COc1ccc(N(C)C(=O)[C@H](Cc2ccccc2)NC(=O)CNS(=O)(=O)c2ccccc2F)cc1", "reported_measurement": "> 40 µM"}
{"compound_structure": "COc1ccc(N(C)C(=O)[C@H](Cc2ccccc2)NC(=O)CNS(=O)(=O)c2cccc([N+](=O)[O-])c2)cc1", "reported_measurement": "> 38 µM"}
{"compound_structure": "COc1ccc(N(C)C(=O)[C@H](Cc2ccccc2)NC(=O)CN2C(=O)Nc3ccc(C)cc3S2(=O)=O)cc1", "reported_measurement": "> 37.3 µM"}
{"compound_structure": "COc1ccc(N(C)C(=O)[C@H](Cc2ccccc2)NC(=O)CN2CCN(S(=O)(=O)c3cccc([N+](=O)[O-])c3)CC2=O)cc1", "reported_measurement": "> 32.8 µM"}
{"compound_structure": "COc1ccc(N(C)C(=O)[C@H](Cc2ccccc2)NC(=O)CN2CCN(S(=O)(=O)c3ccccc3F)CC2=O)cc1", "reported_measurement": "> 34.3 µM"}
{"compound_structure": "COc1ccc(N(C)C(=O)[C@H](Cc2ccccc2)NC(=O)CNS(=O)(=O)c2ccc(OC)cc2)cc1", "reported_measurement": "> 39.1 µM"}
